- target.under.test: Transmembrane protease serine 2 (Homo sapiens, UniProt O15393)
- Sequence (O15393 1-255 limits assumed): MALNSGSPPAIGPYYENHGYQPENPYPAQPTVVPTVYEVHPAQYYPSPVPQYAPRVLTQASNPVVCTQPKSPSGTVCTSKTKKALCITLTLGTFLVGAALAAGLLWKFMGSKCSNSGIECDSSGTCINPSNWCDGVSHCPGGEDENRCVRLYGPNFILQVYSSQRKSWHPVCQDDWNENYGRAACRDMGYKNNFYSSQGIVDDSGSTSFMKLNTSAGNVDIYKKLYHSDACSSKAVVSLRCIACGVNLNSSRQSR
- Sequence (O15393 256-492 limits assumed): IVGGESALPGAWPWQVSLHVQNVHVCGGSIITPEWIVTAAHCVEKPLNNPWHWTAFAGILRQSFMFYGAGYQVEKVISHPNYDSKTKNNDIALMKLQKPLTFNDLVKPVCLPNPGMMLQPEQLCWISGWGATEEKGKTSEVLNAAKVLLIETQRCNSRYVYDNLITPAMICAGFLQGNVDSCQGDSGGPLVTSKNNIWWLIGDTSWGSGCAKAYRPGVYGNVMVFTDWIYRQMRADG
- assay.explanation: Inhibition of recombinant TMPRSS2 (unknown origin) extracted from baculovirus infected in Sf9 cells using Boc-QAR-AMC as substrate measured after 1 hr by fluorescence based analysis
measured.metric: IC50

N=C(N)NCCCCC(=O)N[C@H](CCC(N)=O)C(=O)N[C@@H](Cc1ccccc1)C(=O)N[C@@H](CCCNC(=N)N)C(=O)c1nc2ccccc2s1	1.4 nM
COCCC(=O)N[C@@H](CCC(N)=O)C(=O)N[C@@H](Cc1ccccc1)C(=O)N[C@@H](CCCNC(=N)N)C(=O)c1nc2ccccc2s1	0.59 nM

Consider the compound "N=C(N)NCCCCC(=O)N[C@@H](CCC(N)=O)C(=O)N[C@@H](CO)C(=O)N[C@@H](CCCNC(=N)N)C(=O)c1nc2ccccc2s1" and give its measured IC50.
3.2 nM

Subsequent entry: "N=C(N)NCCC[C@H](NC(=O)[C@H](Cc1ccccc1)NC(=O)[C@H](CCC(N)=O)NC(=O)OCc1ccccc1)C(=O)c1nccs1"
0.35 nM

Subsequent entry: "N=C(N)NCCC[C@H](NC(=O)OCc1ccccc1)C(=O)N[C@@H](CCC(N)=O)C(=O)N[C@@H](Cc1ccccc1)C(=O)N[C@@H](CCCNC(=N)N)C(=O)c1nc2ccccc2s1"
1.4 nM

Subsequent entry: "CC(C)[C@H](NC(=O)[C@H](Cc1cscn1)NC(=O)CCc1ccccc1)C(=O)N[C@@H](CCCNC(=N)N)C(=O)c1nc2ccccc2s1"
3 nM

====

We begin with a simple list: items and their reported pIC50.
- target.under.test: Transmembrane protease serine 2 (Homo sapiens)
- assay.explanation: Inhibition of recombinant TMPRSS2 (unknown origin) extracted from baculovirus infected in Sf9 cells using Boc-QAR-AMC as substrate measured after 1 hr by fluorescence based analysis
pIC50 here: minus log base 10 of the concentration, concentration in moles per litre.

Completed entries (count: 5):
N=C(N)NCCCCC(=O)N[C@@H](CCC(N)=O)C(=O)N[C@@H](Cc1ccccc1)C(=O)N[C@@H](CCCNC(=N)N)C(=O)c1nc2ccccc2s1	8.85
CN(C)C(=O)CC[C@H](NC(=O)CCCCNC(=N)N)C(=O)N[C@@H](Cc1ccccc1)C(=O)N[C@@H](CCCNC(=N)N)C(=O)c1nc2ccccc2s1	9.21
N=C(N)NCCCCC(=O)N[C@@H](CC(N)=O)C(=O)N[C@@H](Cc1ccccc1)C(=O)N[C@@H](CCCNC(=N)N)C(=O)c1nc2ccccc2s1	9.06
CS(=O)(=O)N[C@@H](CCC(N)=O)C(=O)N[C@@H](Cc1ccccc1)C(=O)N[C@@H](CCCNC(=N)N)C(=O)c1nccs1	9.06
N=C(N)NCCC[C@H](NC(=O)[C@H](Cc1ccccc1)NC(=O)[C@H](CCC(N)=O)NC(=O)CCO)C(=O)c1nc2ccccc2s1	8.85

Consider the molecule "C[C@H](NC(=O)CCCCNC(=N)N)C(=O)N[C@@H](Cc1ccccc1)C(=O)N[C@@H](CCCNC(=N)N)C(=O)c1nc2ccccc2s1" and give its measured pIC50.
9.18

====

We begin with a simple list: items and their reported pIC50.
- target.under.test: Transmembrane protease serine 2 (Homo sapiens, UniProt O15393)
- assay.explanation: Inhibition of recombinant TMPRSS2 (unknown origin) extracted from baculovirus infected in Sf9 cells using Boc-QAR-AMC as substrate measured after 1 hr by fluorescence based analysis
pIC50 here: minus log base 10 of the concentration, concentration in moles per litre.

Completed entries (count: 2):
N=C(N)NCCCCC(=O)N[C@@H](CCC(N)=O)C(=O)N[C@@H](Cc1ccccc1)C(=O)N[C@@H](CCCNC(=N)N)C(=O)c1nccs1	9.13
CCOC(=O)N[C@@H](CCCNC(=N)N)C(=O)N[C@@H](CCC(N)=O)C(=O)N[C@@H](Cc1ccccc1)C(=O)N[C@@H](CCCNC(=N)N)C(=O)c1nc2ccccc2s1	9.05

Now consider a different molecule.
Param readout = pIC50; param system = Transmembrane protease serine 2 (Homo sapiens, UniProt O15393); param query = "N=C(N)NCCC[C@H](NC(=O)[C@H](Cc1ccccc1)NC(=O)[C@@H]1CCC(=O)NCCCC(=O)N1)C(=O)c1nc2ccccc2s1" ; response: value
9.00

====

- target.under.test: Transmembrane protease serine 2 (Homo sapiens)
- assay.explanation: Inhibition of recombinant TMPRSS2 (unknown origin) extracted from baculovirus infected in Sf9 cells using Boc-QAR-AMC as substrate measured after 1 hr by fluorescence based analysis
measured.metric: IC50 (nM)
Give your result in nM as a bare value.

Completed entries (count: 2):
C[C@H](NC(=O)[C@H](CCC(N)=O)NC(=O)CCCCNC(=N)N)C(=O)N[C@@H](CCCNC(=N)N)C(=O)c1nc2ccccc2s1	2.4
CC(=O)N[C@@H](CCC(N)=O)C(=O)N[C@@H](CC1CCCCC1)C(=O)N[C@@H](CCCNC(=N)N)C(=O)c1nc2ccccc2s1	1.3

Now consider a different compound.
Param readout = IC50; param system = Transmembrane protease serine 2 (Homo sapiens); param query = "N=C(N)NCCCCC(=O)N[C@@H](Cc1ccccc1)C(=O)N[C@@H](Cc1ccccc1)C(=O)N[C@@H](CCCNC(=N)N)C(=O)c1nc2ccccc2s1" ; response: value
0.66
